Reported pKd values are given for each entry in this list.
Target or test system: soluble gp41 MPER peptide RRR-(656-683)-RRR
Assay summary: kinetic binding (ka/kd)
pKd: −log10 of the molar value.

Binder	pKd
T52A (heavy chain) (antibody, V domains shown) VH: EVQLVESGGGLVKPGGSLRLSCSASGFDFDNAWMTWVRQPPGKGLEWVGRIAGPGEGWSVDYAAPVEGRFTISRLNSINFLYLEMNNLRMEDSGLYFCARTGKYYDFWSGYPPGEEYFQDWGRGTLVTVSS VL: SYELTQETGVSVALGRTVTITCRGDSLRSHYASWYQKKPGQAPILLFYGKNNRPSGVPDRFSGSASGNRASLTISGAQAEDDAEYYCSSRDKSGSRLSVFGGGTKLTVL	7.96
N31A (heavy chain) (antibody, V domains shown) VH: EVQLVESGGGLVKPGGSLRLSCSASGFDFDAAWMTWVRQPPGKGLEWVGRITGPGEGWSVDYAAPVEGRFTISRLNSINFLYLEMNNLRMEDSGLYFCARTGKYYDFWSGYPPGEEYFQDWGRGTLVTVSS VL: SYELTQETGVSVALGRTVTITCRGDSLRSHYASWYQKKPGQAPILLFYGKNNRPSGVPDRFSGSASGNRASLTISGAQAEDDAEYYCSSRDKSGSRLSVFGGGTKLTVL	7.89
